target: T1, AAV5; experiment: SPR, AAV on CM5 chip;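 also: surface plasmon resonance with AAV amine-coupled to the chip as ligand, nanobodies injected as analyte over a concentration series, rate constants and affinity fitted from binding curves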
T1 construct: also called adeno-associated virus serotype 5
REPORTED_METRIC: koff (s⁻¹)
Field format: number, assumed s⁻¹, no unit text.

Which koff is listed for A4-038 (VHH) VHH: VQLQESGGGLVQPGGSLRLSCAASGSHFSINTMGWYRQAPGKQRELVATVTRGGSTNYANSVKGRFTISRDNAKNTVYLQMNSLRPEDTAVYYCHLDEVRQSSWTTSNLWGQGTQVTVSS ?
0.00028

Return reported koff; argument: A4-003 (VHH) VHH: VQLQESGGGLVQPGGSLRLSCVASGRSFSINTMGWYRQAPGKQRELVAAVTRGGSTNYAGSVKGRFTISRDNAKNTVYLQMNSLRPEDTAVYYCHIDEVRQSSWTTSNIWGQGTQVTVSS
0.00019

Can you look up the measured koff of A4-023 (VHH) VHH: VQLQESGGGLVQPGGSLRLSCAASGSAFSINTMGWYRQAPGKQRELVASVTPGGSTNYADSVKGRFTISRDNAKNTIYLQMNSLRPEDTAVYYCHLDEVRESSWTTSNLWGQGTQVTVSS for me?
0.00126

Any idea what koff was measured for A4-012 (VHH) VHH: VQLQESGGGAVQAGGSLRLSCAASGSIFSINSMGWYRQAPGKQRELVATVTRGGNTNYAGSVKGRFTISRDNAKNTVYLQMNSLRPEDTAVYYCHVDEVRESSWTTSNLWGQGTQVTVSS ?
0.00173
